B1: tRNA (parent)
chain: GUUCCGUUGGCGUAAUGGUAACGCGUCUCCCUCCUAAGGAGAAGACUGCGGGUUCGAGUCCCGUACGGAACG

# Variants of: B1
# test.name: yeast fitness relative to wild type (ratio to wild type); higher = fitter; tRNA-Arg(CCU), competitive growth, 37 C, YPD
Fewer inactive variants are shown than the library holds.
recorded.metric: yeast fitness

Query: Look up yeast fitness of "GUUCCGUUGGCGUCAUGGUAACGGGUCUCCCUCCUAAGGAAAAAACUGCGGGAUCGAGUCCCGUAUGGAACG" and report it.
Response: ≤ 0.5

Query: Supply reported yeast fitness belonging to this variant: "GUUCCGUUGGCGUAAUGGCUACGCGUCUCCCUCCUAAGGAGAAGACUGCGGGUUAGAGUCCCGUACGGAACG"
Response: ≤ 0.5

Query: Annotate the variant "GUUCAGUCGGCGUGAUGGUAGCGCGUCUCCCUCCUAAGGAGAAGCCUGCGGGUUCCAGUCCCGUACGGAACG" with its measured yeast fitness.
Response: ≤ 0.5

Query: Tell me its yeast fitness given "GUUACGUUGGCGUAAAGGUAACGCGUCUCCCUCCUAAGGAGACGAUUGCGGGUUCGAGUCCCGUACGGAACG" as the entry.
Response: ≤ 0.5

Query: Return yeast fitness (reported value) for this variant: "GUUCCGUUGGCGUAAUGGUAACGCGUCUCCCUGCUAAGGAGACGACUGCGGGUUCGAGUCCCGUACGAAACG"
Response: ≤ 0.5

Query: Answer with the recorded yeast fitness for the variant listed here: "GUUCCGUUGGCGUAAUGCUAACGCGUCUCGCCCCUAAGGAGAAGACUGCGGGUUCGAGUCCCGUACGGUACG"
Response: ≤ 0.5

Query: Output measured yeast fitness for this item: "GUUCCGUUGGAGUAAUGGUAACGCGUCUCCCUCCUGAGGAGAUGACUGCGGGUUCGAGUCCCGUACGGAACG"
Response: ≤ 0.5

Query: Retrieve yeast fitness measured for "GUUCCGUUGGUGUAAUGGUAACGCGUCUCCCUCCUAAGGAGAAGACUGCGGGUUCGAGUCCCGAACGGAACG" and print it.
Response: 0.71

Query: Tell me yeast fitness reported for "GUUCCGUUGGCGUAAUGGUAACGCGUCUCCCUCCUAAGGCGAAGACUGCGGCUUCGAGUCCCGUACAGAACG"
Response: 0.55

Query: Tell me measured yeast fitness for "GUCCCGUUGGCGUACUGGUAACGCGUCUCCCUCCUAAGGAGAAGACGGCGGGUACGAAUCCCGUACGGAACG" please.
Response: ≤ 0.5

Query: // fetch yeast fitness given entry "GUUCCGUUGGCGUAAUGGUAACGCGACUCCCUCCUAAGGAGAAGACUGCGGGUUUGAGUCCCGUACGGAACG"
Response: 0.65
